Tested on: MDA-MB-435 melanoma
Assay: NCI-60 one-dose screen, 48 h
Details: 10 µM unless noted
The panel holds about 83,000 compounds, 20% with a hit somewhere; the sample as a whole holds those more often. Activity calls are given as the source filed them. How the source made its calls: active means growth percent below 10; inactive means the rest.
Your answer must be one of the following: active, inactive

Example entries begin here.
INSERT INTO assay_data (compound, assigned_class) VALUES
  ('O=C1/C(=C/c2ccc(Br)cc2)COc2ccc(O)c(O)c21', 'active'),
  ('O=c1[nH]cnc2c1C(c1ccc(Br)cc1)c1sc3c(F)cccc3c1O2 (centres undefined)', 'inactive'),
  ('C=C1C(=O)O[C@H]2[C@H]1CC/C(COC(=O)c1cc3cc(F)ccc3[nH]1)=C\CC[C@@]1(C)O[C@@H]21', 'active');

Query: Assay outcome for CC(C)CSc1oc(-c2ccccc2)nc1S(=O)(=O)c1ccccc1 : what was it?
Reply: inactive

Query: Assay outcome for CNC(=O)c1c(NC(=O)c2ccc(C(C)(C)C)cc2)sc2c(CN(C)C)c(O)ccc12 : what was it?
Reply: active

Query: Assay outcome for CN1C(=O)/C(=C/c2ccc(C(=O)Nc3ncc(Cc4ccc(F)cc4)s3)cc2)SC1=S : what was it?
Reply: active

Query: Assay outcome for COc1ncc2cc1NS(=O)(=O)c1cccc(c1)C(=O)NCC1=CC=C(S1)c1ncnc3c1SC2=C3C : what was it?
Reply: active

Query: Assay outcome for O=C(CCl)Nc1ccc2c(Nc3cc(O)ccc3Cl)ncnc2c1 : what was it?
Reply: active

Query: Assay outcome for O=C1c2cc3c(cc2-c2c1c1ccc(Cl)cc1c(=O)n2C[C@H](O)CO)OCO3 : what was it?
Reply: active
